# System: Lefty1
# procedure-details: Lefty1 binders on small-molecule microarrays, primary screen, biochemical, small-molecule microarray, 635/667 nm fluorescence (AID 1139)
# condition-context: small-molecule microarray binding, fluorescence 635/667; higher = more signal
Rule: composite z-score of 0.4 or more gives true; anything lower gives false.

Request: Dear colleague, could you confirm whether C[N+](C)(C)CCCCCCNC(=O)[C@H]1C[C@H]2C(=O)NCC(=O)N2[C@H]1c1ccc(O)cc1 has composite z-score at or above 0.4?
Response: true

Request: Entry to check: C=C(/C(=C/C[C@H](OC(=O)c1ccncc1)c1ccc(CO)o1)c1cc(C(=O)OC)ccc1OC)C(C)C
Response: true

Request: Entry to check: O=C1NC(=O)C2C1C=CC(C(O)c1cccc3ccccc13)N2Nc1ccc(Cl)cc1Cl (stereo not drawn)
Response: false

Request: Entry to check: C=CC[C@]1(C(=O)O)COC(c2ccc(OCCCO)cc2)=N1
Response: false

Request: Entry to check: [N-]=[N+]=Nc1ccccc1[C@H]1OC(c2ccc(OCCCO)cc2)=N[C@@]1(Cc1ccccc1)C(=O)N1CCCCC1
Response: false

Request: Entry to check: C=CCOC(=O)[C@H]1[C@@H]2C(=O)O[C@@H](c3ccccc3)[C@@H](c3ccccc3)N2[C@@H](c2ccc(OCCOC(=O)[C@@H]3C[C@@H]4C(=O)N[C@@H](CCCCNC(C)=O)C(=O)N4[C@@H]3c3ccc(O)cc3)cc2)[C@]12C(=O)Nc1ccc(I)cc12
Response: true

Request: Entry to check: O=C1C2C=CC(C(O)c3ccc(Br)cc3)N(Nc3ccccc3F)C2C(=O)N1c1ccccc1 (stereo not drawn)
Response: false

Request: Entry to check: COCCOC(=O)N1C(=O)[C@@]2(c3cc(C#CC4=CCCCC4)ccc31)[C@H](c1ccc(O)cc1)N1[C@H](c3ccccc3)[C@H](c3ccccc3)OC(=O)[C@H]1[C@@H]2C(=O)N1CCN(c2ncccn2)CC1
Response: false

Request: Entry to check: CCC(CC)C(O)C1C=CC2C(=O)N(c3ccccc3)C(=O)C2N1Nc1ccc(C(C)C)cc1 (stereo not drawn)
Response: false

Request: Entry to check: CCOC(=O)C1=CC[C@@H](c2cccc(Cl)c2)N(S(=O)(=O)c2ccc(C)cc2)C1
Response: false

Request: Entry to check: COC1OC[C@]2(C)[C@H]3C4=C(CN2C(=O)OC(C)(C)C)[C@H](C)C(CO)C(CO)C4CC[C@@H]13 (stereo partly drawn)
Response: false

Request: Entry to check: COCCOC(=O)N1C(=O)[C@@]2(c3cc(C#CCC(C(=O)OC)C(=O)OC)ccc31)[C@H](C(=O)N1CCc3cc(OC)c(OC)cc3C1)[C@H]1C(=O)O[C@H](c3ccccc3)[C@H](c3ccccc3)N1[C@@H]2c1ccc(OCCO)cc1
Response: true

Request: Entry to check: [N-]=[N+]=NCc1ccccc1C[C@@]1(C(=O)N2CCCCC2)N=C(c2ccc(OCCCO)cc2)O[C@@H]1c1ccccc1
Response: false

Request: Entry to check: COCCOC(=O)N1C(=O)[C@@]2(c3cc(C#Cc4ccc(OC)cc4)ccc31)[C@H](c1ccccc1OCCO)N1[C@H](c3ccccc3)[C@H](c3ccccc3)OC(=O)[C@H]1[C@@H]2C(=O)N1CCCCCCC1
Response: true

Request: Entry to check: O=C1NC(=O)C2C1C=CC(C(O)c1c(F)cccc1Cl)N2Nc1ccc(Cl)cc1Cl (stereo not drawn)
Response: false

Request: Entry to check: COC(=O)c1c2oc(c1C(=O)OC)C(=O)N(C)Cc1cn(nn1)C[C@H](Cc1ccccc1)NC(=O)N[C@H](CO)CC2
Response: false

Request: Entry to check: COC(=O)[C@@]1(Cc2ccc(OC)cc2)[C@H]2c3cc(C(=O)N4CCCC4)n(Cc4c(-c5ccccc5)noc4C)c3C[C@H]2CN1C(=O)c1ccccc1
Response: false

Request: Entry to check: Cc1ccc(S[C@]2(C(=O)O)CC(=O)N(C3Cc4ccccc4C3)[C@@H]2c2ccc(CO)cc2)cc1
Response: false

Request: Entry to check: C=C(C)[C@@H]1CC=C(C(O)C2C=CC3C(=O)N(c4ccccc4)C(=O)C3N2Nc2ccccc2F)CC1 (stereo partly drawn)
Response: true

Request: Entry to check: C=CCOC(=O)[C@H]1[C@@H]2C(=O)O[C@@H](c3ccccc3)[C@@H](c3ccccc3)N2[C@@H](c2ccc(OCCOC(=O)[C@@H]3C[C@@H]4C(=O)N5CCC[C@H]5C(=O)N4[C@@H]3c3ccc(O)cc3)cc2)[C@]12C(=O)Nc1ccc(I)cc12
Response: true

Request: Entry to check: CCCCN1CC=CC23O[C@@H]4/C=C\CCC(C)OC(=O)C4[C@H]2C(=O)N(C(CO)C(C)C)[C@@H]3C1=O (stereo partly drawn)
Response: true

Request: Entry to check: COCCCNC(=O)[C@]1(CCS(=O)(=O)c2ccccc2)N=C(c2ccc(OCCCO)cc2)O[C@@H]1c1ccccc1N=[N+]=[N-]
Response: false

Request: Entry to check: COCCOC(=O)N1C(=O)[C@@]2(c3cc(C#CC4=CCCCC4)ccc31)[C@H](c1ccc(OCCO)cc1)N1[C@H](c3ccccc3)[C@H](c3ccccc3)OC(=O)[C@H]1[C@@H]2C(=O)N1CCN(c2ncccn2)CC1
Response: true

Request: Entry to check: COc1ccc([Si](C)(C)[C@H]2[C@H](CCn3cc([C@H](O)c4ccccc4)nn3)O[C@@]3(C(=O)N(Cc4ccc(N5C(=O)c6cccc7cccc5c67)cc4)c4ccccc43)[C@@H]2C)cc1
Response: false

Request: Entry to check: CC(C)C(CO)N1C(=O)[C@@H]2C3C(=O)OCCC/C=C\[C@H]3OC23C=CCN(C(C)(C)C)C(=O)[C@@H]13 (stereo partly drawn)
Response: false

Request: Entry to check: C#CCN([C@@H](Cc1ccc(O)cc1)C(=O)OC)[C@@H](/C=C/C1CC1)[C@H](O)Cc1ccccc1
Response: true

Request: Entry to check: C=CC1c2cc(O)c(OC)cc2CCN1Cc1cc2c(cc1Br)OCO2 (stereo not drawn)
Response: true

Request: Entry to check: COCCOC(=O)N1C(=O)[C@@]2(c3cc(C#CC4=CCCCC4)ccc31)[C@H](C(=O)N1CCCCCCC1)[C@H]1C(=O)O[C@H](c3ccccc3)[C@H](c3ccccc3)N1[C@@H]2c1ccc(O)cc1
Response: true

The reported measurements were obtained from PubChem BioAssay.
